B1: BTBD1 (parent)
chain: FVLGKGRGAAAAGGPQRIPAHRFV

Variants of: B1
TEST METHOD NOTES: protein stability index of a GFP-peptide fusion (GPS, HEK-293T) (PSI 1-6); higher = more stable;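 further: lentivirally expressed fusions sorted by FACS into six bins by GFP to DsRed ratio, PSI derived from sequencing read proportions per bin multiplied by bin number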
ASSAY SETUP: c terminus: a fixed tail appended
Give protein stability index for every item shown.
Reply: number alone, nothing else.

Just so you know, measured protein stability index for `FVLGKGRGAAVAGGPQRIPAHRFV` came out at 1.28

// protein stability index value for `FVLGKGRNAAAAGGPQRIPAHRFV` : 1.62

Documented protein stability index of `FVLGKGRGAAAAGGLQRIPAHRFV` : 1.43

protein stability index in this record for `FVLGKGRGAAAAGGPQRIPAHKFV` : 1.82

protein stability index for `FVLGKGRGAAAAGGPQRIPAHGFV` is 1.08

Entry under test: `FVLGKGRGAAAAGGPQRIPAHNFV` . Its protein stability index was 2.53

Lookup result for `FVIGKGRGAAAAGGPQRIPAHRFV` ; measured protein stability index: 1.68

`FVLGKGRGAAAAGGPQRIPAHRFR` has a reported protein stability index of 1.8

variant `FVLGKGRGAAAADGPQRIPAHRFV` , protein stability index observed: 2.24

Documented protein stability index of `FVLGKGRGAAAAGGPQRIPAHRTV` : 2.2

Notebook: `FVLGKGRGAAAAGGNQRIPAHRFV` , protein stability index read as 1.52
